What CRE-luc Relative Signal:Noise (% P8) was measured for each of the following?
target: full-length human GLP1R on HEK293/CRE-Luc/hGLP1R cells (human, UniProt P43220 24-463); assay: cell-based or functional assay
# number only, unit % dropped from output

In: So what does the record say about CRE-luc Relative Signal:Noise (% P8) for COMP Anti-GLP1R mAb1 conjugated to LP4 (antibody, human IgG4 S228P, kappa, V domains shown, azido-PEG3-amine on the Gln of the N-terminal Q-tag LLQGSG, clicked to LP4 (DIBAC-suc-PEG24-P9)) VH: QVTLKESGPGILQPSQTLSLTCSFSGFSLSTSGTGVGWIRQPSGKGLEWLSHIWWDDVKRYNPALKSRLTISRDTSYSQVFLRIASVDTADTATYYCARILDGTGPMDYWGQGTSVTVSS VL: QIVLTQSPAIMSASPGEKVTMTCSASSRVTYMHWYQQRSGTSPKRWIYDTSKLASGVPARFSGSGSGTSYSLTISSMEAEDAATYYCQQWGNNPQYTFGGGTRLEIKR ?
Out: 87.4

In: So what does the record say about CRE-luc Relative Signal:Noise (% P8) for COMP Anti-GLP1R mAb1 conjugated to LP3 (antibody, human IgG4 S228P, kappa, V domains shown, azido-PEG3-amine on the Gln of the N-terminal Q-tag LLQGSG, clicked to LP3 (DIBAC-suc-PEG12-P9)) VH: QVTLKESGPGILQPSQTLSLTCSFSGFSLSTSGTGVGWIRQPSGKGLEWLSHIWWDDVKRYNPALKSRLTISRDTSYSQVFLRIASVDTADTATYYCARILDGTGPMDYWGQGTSVTVSS VL: QIVLTQSPAIMSASPGEKVTMTCSASSRVTYMHWYQQRSGTSPKRWIYDTSKLASGVPARFSGSGSGTSYSLTISSMEAEDAATYYCQQWGNNPQYTFGGGTRLEIKR ?
Out: 115

In: So what does the record say about CRE-luc Relative Signal:Noise (% P8) for COMP Anti-GLP1R mAb1 conjugated to LP1 (antibody, human IgG4 S228P, kappa, V domains shown, azido-PEG3-amine on the Gln of the N-terminal Q-tag LLQGSG, clicked to LP1 (DIBAC-suc-PEG4-P9)) VH: QVTLKESGPGILQPSQTLSLTCSFSGFSLSTSGTGVGWIRQPSGKGLEWLSHIWWDDVKRYNPALKSRLTISRDTSYSQVFLRIASVDTADTATYYCARILDGTGPMDYWGQGTSVTVSS VL: QIVLTQSPAIMSASPGEKVTMTCSASSRVTYMHWYQQRSGTSPKRWIYDTSKLASGVPARFSGSGSGTSYSLTISSMEAEDAATYYCQQWGNNPQYTFGGGTRLEIKR ?
Out: 90.3

In: So what does the record say about CRE-luc Relative Signal:Noise (% P8) for COMP Anti-GLP1R mAb1 conjugated to LP2 (antibody, human IgG4 S228P, kappa, V domains shown, azido-PEG3-amine on the Gln of the N-terminal Q-tag LLQGSG, clicked to LP2 (DIBAC-suc-PEG8-P9)) VH: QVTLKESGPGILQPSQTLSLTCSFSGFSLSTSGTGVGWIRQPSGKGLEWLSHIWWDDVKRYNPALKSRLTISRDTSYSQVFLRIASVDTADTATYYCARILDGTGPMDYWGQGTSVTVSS VL: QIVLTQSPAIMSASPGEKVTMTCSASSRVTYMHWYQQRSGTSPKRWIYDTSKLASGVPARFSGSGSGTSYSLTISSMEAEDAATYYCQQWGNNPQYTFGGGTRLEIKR ?
Out: 96.4
